measurement-description: relative permittivity at various frequencies (dimensionless)
condition-parameters: 298.15 K; 100 kPa; Liquid; Frequency=1 MHz; Parallel plate capacitor
Numbers after ± are expanded uncertainties.

{"compound": "NC1CCCCC1 [cyclohexylamine]", "relative permittivity": "4.53 ± 0.09"}
{"compound": "CCCCCCCCCCO [decan-1-ol]", "relative permittivity": "8.01 ± 0.16"}
{"compound": "CCCO [propan-1-ol]", "relative permittivity": "20.54 ± 0.41"}
{"compound": "CCCCO [butan-1-ol]", "relative permittivity": "17.58 ± 0.35"}
{"compound": "CCCCCCCO [heptan-1-ol]", "relative permittivity": "11.47 ± 0.23"}
